test system: NCI-H460; test: NCI tumour cell line growth inhibition, 48 h
Calls of active or inactive are those of the source. Cut-off read from the data, not from the text of the source: active = GI50 up to about 1.1 µM and inactive = higher.
Labels: active, inactive

| compound | target of assay | category label |
| --- | --- | --- |
| COC1/C=C/C(C)C(C(C)C(OC)C(C)CCC(=O)C(C)C(C/C=C/N(C)C=O)OC)OC(=O)/C=C/C=C(\C)CC(OC)C(OC)C2=CC(=O)O[C@@H](C(C)C(OC)CC(OC)/C=C/C(C)C(O)C1)[C@H]2O (some centres undefined) | NCI-H460 | active |
| COc1c(C)c(C/C=C(\C)CCCCO[Si](c2ccccc2)(c2ccccc2)C(C)(C)C)c(OC)c(OC)c1OC | NCI-H460 | inactive |
| CCOc1ccc(OCC(=O)O)c2c1CCCC2=O | NCI-H460 | inactive |
| CCOC(=O)/C(=C/c1ccccn1)C(=O)c1ccccc1 | NCI-H460 | inactive |

* * *

system: NCI-H522; experiment: NCI tumour cell line growth inhibition, 48 h
Active and inactive are the calls of the source. No stated cut-off is given here; in the data, active = GI50 up to about 1.1 µM and inactive = higher.
Outcomes: active, inactive

| compound | target of assay | category label |
| --- | --- | --- |
| Cc1cccc2c1Oc1cc(Cl)ccc1C2NC(=O)CCN1CCOCC1 (stereo not given) | NCI-H522 | inactive |
| CC(=O)OCC1OC(n2c(C)c(C)c(C)c(C#N)c2=S)C(OC(C)=O)C(OC(C)=O)C1OC(C)=O (stereo not given) | NCI-H522 | inactive |
| Oc1c(Br)c(-c2ccccc2)nc2ccccc12 | NCI-H522 | inactive |
| CCCCCCCCCc1cccc(N2C(N)=NC(N)=NC2(C)C)c1 | NCI-H522 | active |
| C[N+](C)(C)CC(=O)N/N=C(/CC1OC(=O)c2ccccc21)c1ccccc1O (stereo not given) | NCI-H522 | inactive |
| CCOC(=O)/C=C1\c2ccccc2C(=O)N1CC(=O)OCC | NCI-H522 | inactive |
| CC(C)[C@]12O[C@H]1[C@@H]1O[C@]13[C@]1(O[C@H]1C[C@H]1C4=C(CC[C@@]13C)C(=O)OC4)[C@@H]2O [TRIPTOLIDE] | NCI-H522 | active |
| CN(C)CCNC(=O)c1cccc2c1Oc1cccc([N+](=O)[O-])c1O2 | NCI-H522 | inactive |
| Cc1ccc(S(=O)(=O)O)cc1.c1cc2c(c(NC3=NCCN3)c1)CCCC2 | NCI-H522 | inactive |
| COc1cc(N2C(=O)C(=O)C3(CCCCC3)C2=O)cc(OC)c1OC | NCI-H522 | inactive |
| O=C(O)c1ccccc1C(=O)Nn1cnnc1 | NCI-H522 | inactive |
| CCN(CC)C(=O)C/C(C)=N/NC(=O)c1ccncc1 | NCI-H522 | inactive |
| CCN(CC)CCOC(c1ccccc1)c1ccccc1.CCOC(=O)Nc1ccc(S(=O)(=O)OC)cc1.CCOC(=O)Nc1ccc(S(=O)(=O)OC)cc1.Nc1ccc(C(=O)O)c(O)c1 | NCI-H522 | inactive |
| CC(=O)NC1COC(COC(=O)CCCCCCCCCCNC(=O)c2ccc([N+](=O)[O-])c3c(=O)c4ccccc4[nH]c23)C(O)C1OC(C)C(=O)NC(C(=O)NC(CCC(N)=O)C(=O)OCc1ccccc1)C(C)C (stereo not given) | NCI-H522 | inactive |
| COc1ccc2c3c([nH]c2c1[N+](=O)[O-])C(C)N(C)CC3 (stereo not given) | NCI-H522 | inactive |
